Data origin, for the record: patent US20220267260A1

Recorded IC50 by entry
# studyTarget: KAT5 (Homo sapiens, UniProt Q92993)
# Sequence (Q92993 with tags, fused parts or gaps): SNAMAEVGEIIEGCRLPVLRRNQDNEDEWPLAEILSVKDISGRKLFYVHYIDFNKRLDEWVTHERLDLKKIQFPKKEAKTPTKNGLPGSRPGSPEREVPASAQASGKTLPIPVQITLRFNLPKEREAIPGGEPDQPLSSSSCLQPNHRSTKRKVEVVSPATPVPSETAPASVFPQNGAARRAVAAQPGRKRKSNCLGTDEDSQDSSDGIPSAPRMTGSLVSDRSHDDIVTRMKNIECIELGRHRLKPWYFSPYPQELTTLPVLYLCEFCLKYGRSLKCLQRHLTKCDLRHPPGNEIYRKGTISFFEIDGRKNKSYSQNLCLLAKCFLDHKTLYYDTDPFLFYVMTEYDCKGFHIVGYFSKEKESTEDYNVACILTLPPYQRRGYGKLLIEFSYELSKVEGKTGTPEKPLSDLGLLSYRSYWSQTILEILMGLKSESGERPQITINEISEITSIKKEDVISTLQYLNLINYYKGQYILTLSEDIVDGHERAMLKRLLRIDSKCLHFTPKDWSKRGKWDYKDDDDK

Below, 7 compounds whose answers are already recorded.
[[record]]
compound = "O=C(NNS(=O)(=O)c1ccccc1)c1cccc(F)c1"
result = "> 100 µM"

[[record]]
compound = "Cn1ncc2c(C(=O)NNS(=O)(=O)c3ccccc3)cc(-c3ccccc3)cc21"
result = "> 100 µM"

[[record]]
compound = "Cc1cc(-c2ccccc2)cc(C(=O)NS(=O)(=O)N2CCCC2)c1F"
result = "> 100 µM"

[[record]]
compound = "Cc1cc(-c2ccccc2Cl)cc(C(=O)NNS(=O)(=O)C2CCCCC2)c1F"
result = "50 to 100 µM"

[[record]]
compound = "Cc1cc(-c2cccc(C(=O)N(C)C)c2)cc(C(=O)NNS(=O)(=O)CC2CCCCC2)c1F"
result = "10 to 50 µM"

[[record]]
compound = "O=C(NNS(=O)(=O)c1ccc(Cl)cc1)c1ccccc1F"
result = "> 100 µM"

[[record]]
compound = "O=C(NNS(=O)(=O)c1cccc(Cl)c1)c1c(F)ccc(-c2ccccc2)c1F"
result = "10 to 50 µM"


Attention now shifts to the item below.
Kindly note: KAT5 (Homo sapiens, UniProt Q92993), COCC(=O)N1CCC(CS(=O)(=O)NNC(=O)c2cc(-c3ccccc3)cc(C)c2F)C1 (centres unmarked) , IC50 value reported: ≤ 10 µM

---

KAT5 (Homo sapiens, UniProt Q92993) data, read-out IC50

Some compounds with recorded IC50:
[[record]]
compound = "CCNC(=O)c1cc(Cl)c(F)c(C(=O)NNS(=O)(=O)C2CCCCC2)c1"
result = "> 100 µM"

[[record]]
compound = "Cc1cc(-c2cccc(F)c2)cc(C(=O)NNS(=O)(=O)CC2CCCN(C(=O)CCN(C)C)C2)c1F (stereo not drawn)"
result = "10 to 50 µM"

[[record]]
compound = "Cc1cc(-c2ccccc2)cc(C(=O)NNS(=O)(=O)C2CCCN(C(C)C)C2)c1F (stereo not drawn)"
result = "> 100 µM"


Kindly note: KAT5 (Homo sapiens, UniProt Q92993), `Cc1cc(-c2ccccc2)cc(C(=O)NNc2ncccn2)c1F` , IC50 value reported: > 100 µM

# value of IC50, KAT5 (Homo sapiens, UniProt Q92993), item `CCS(=O)(=O)NNC(=O)c1cc(-c2ccccc2)cc(C)c1F` = 10 to 50 µM

Form field, IC50 with KAT5 (Homo sapiens, UniProt Q92993), item `O=C(NNS(=O)(=O)c1ccccc1)c1c[nH]c2ccccc12` : > 100 µM
